Items are presented alongside their recorded Stability S.
assay: Stability of each chemical component in rat plasma; type: in vitro ADME; conditions: 500 ng/mL, −4 °C for 14 d
Lab note: write values as number then unit, every time.

Completed entries (count: 2):
| compound-structure | Stability S |
| --- | --- |
| O=C(O)c1cc(O)c2c(c1)C(=O)c1cccc(O)c1C2=O | 85.40% |
| O=C1c2cccc(O)c2C(=O)c2c(O)cc(CO)cc21 | 98.30% |

Summary for this compound, Cc1cc(O)c2c(c1)C(=O)c1cc(O)cc(O)c1C2=O : Stability S is 89.90%

Summary for this compound, Cc1cc(O)c2c(c1)C(=O)c1cccc(O)c1C2=O : Stability S is 96.30%

Summary for this compound, COc1cc(O)c2c(c1)C(=O)c1cc(C)cc(O)c1C2=O : Stability S is 96.70%

###

assay: Pharmacokinetics of five components in control; format: in vivo, SD rats; conditions: male, SD, rat, plasma, po, 1.5 mL/200 g, Cmax, RhRR-EuS of control group; single oral 1.5 mL/200 g RhRR-EuS decoction; plasma; n = 6
# strict inequality: Cmax < 60 ng/mL yields T, everything else yields F

These recorded examples may help you get a feel for the data.
| compound-structure | category |
| --- | --- |
| Cc1cc(O)c2c(c1)C(=O)c1cccc(O)c1C2=O | F |
| Cc1cc(O)c2c(c1)C(=O)c1cc(O)cc(O)c1C2=O | T |
| O=C(O)c1cc(O)c2c(c1)C(=O)c1cccc(O)c1C2=O | F |

Exercise: Hi there! Is Cmax for O=C1c2cccc(O)c2C(=O)c2c(O)cc(CO)cc21 below 60 ng/mL, do you know?
Solution: F

###

assay: Pharmacokinetics of five components in control; assay type: in vivo, SD rats; conditions: male, SD, rat, plasma, po, 1.5 mL/200 g, Tmax, RhRR-EuS of control group; single oral 1.5 mL/200 g RhRR-EuS decoction; plasma; n = 6
attribute-measured: Tmax (min)
Express your answer in min, writing the number without its unit.

| compound-structure | obs-value |
| --- | --- |
| COc1cc(O)c2c(c1)C(=O)c1cc(C)cc(O)c1C2=O | 15 |

API: the following record is the query input.
Summary for this compound, O=C1c2cccc(O)c2C(=O)c2c(O)cc(CO)cc21 : Tmax is 30

###

experiment: Stability of each chemical component in rat plasma; assay type: in vitro ADME; conditions: 500 ng/mL, −20 °C free for 15 d
attribute-measured: Stability S (%)
Express your answer in %, writing the number without its unit.

Completed entries (count: 2):
| compound-structure | Stability S / % |
| --- | --- |
| Cc1cc(O)c2c(c1)C(=O)c1cc(O)cc(O)c1C2=O | 106 |
| COc1cc(O)c2c(c1)C(=O)c1cc(C)cc(O)c1C2=O | 95.3 |

Summary for this compound, O=C1c2cccc(O)c2C(=O)c2c(O)cc(CO)cc21 : Stability S is 85.6

Summary for this compound, O=C(O)c1cc(O)c2c(c1)C(=O)c1cccc(O)c1C2=O : Stability S is 100.40

Summary for this compound, Cc1cc(O)c2c(c1)C(=O)c1cccc(O)c1C2=O : Stability S is 99.50

###

Items are presented alongside their recorded log10(AUC).
assay: Pharmacokinetics of five components in control; assay type: in vivo, SD rats; details: male, SD, rat, plasma, po, 1.5 mL/200 g, AUC(0−i), RhRR of control group; single oral 1.5 mL/200 g RhRR decoction; plasma; n = 6
Scale type: logarithmic (base 10). Underlying AUC unit: µg·h/mL.

Completed entries (count: 3):
| compound-structure | log10(AUC) |
| --- | --- |
| COc1cc(O)c2c(c1)C(=O)c1cc(C)cc(O)c1C2=O | -0.38 |
| O=C1c2cccc(O)c2C(=O)c2c(O)cc(CO)cc21 | -0.13 |
| O=C(O)c1cc(O)c2c(c1)C(=O)c1cccc(O)c1C2=O | 0.22 |

Summary for this molecule, Cc1cc(O)c2c(c1)C(=O)c1cc(O)cc(O)c1C2=O : log10(AUC) is -1.03

Summary for this molecule, Cc1cc(O)c2c(c1)C(=O)c1cccc(O)c1C2=O : log10(AUC) is -0.15
